Assay: Rat pharmacokinetic studies: plasma allopregnanolone after oral prodrug or ALLO, and after IV ALLO
Type: in vivo, male Sprague-Dawley rats
Conditions: male, Sprague-Dawley, plasma, 2 mg/kg; rat; IV, equivalent dose of allopregnanolone; n=1; read-out: AUC after intravenous administration
QUANTITY_MEASURED: AUC

Lookup: Tell me the measured AUC of CC(=O)[C@H]1CC[C@H]2[C@@H]3CC[C@H]4C[C@H](O)CC[C@]4(C)[C@H]3CC[C@]12C , please.
Found: ~1.45 µM·h

----------
Assay: Dog pharmacokinetic studies: plasma ALLO after oral ALLO or prodrug, and after IV ALLO
Type: in vivo, male beagle dogs
Conditions: male, dog, plasma, 0.5 mg/kg; beagle dogs; IV bolus ALLO; normalized to 1.5 mg/kg; mean±SD (n=4); read-out: Cmax (extrapolated C0)
Experimental: For the dog studies, male beagle dogs (body weights between 9.1-11.7 kg) were held in a large-animal research facility prior to the commencement of studies. The dogs were fasted for 12 h up to 30 min prior to drug administration. […] Doses are normalized to a 1.5 mg/kg equivalent ALLO dose and data are presented as mean±SD (n=4). AUC was calculated using the trapezoidal method in PKsolver—non-compartment model. […]
QUANTITY_MEASURED: Cmax (µM)
Return type: number; implicit unit µM.

Lookup: Which Cmax value is on record for CC(=O)[C@H]1CC[C@H]2[C@@H]3CC[C@H]4C[C@H](O)CC[C@]4(C)[C@H]3CC[C@]12C ?
Found: 3.5
